System: HeLa cells
Assay: Inhibition of in vitro growth of HeLa cells (Alamar Blue uptake)
Type: cell-based
Conditions: Homo sapiens; concentration required to inhibit by 50% the uptake of Alamar Blue by HeLa cell cultures
Reported Endpoint: IC50 (nM)

1. COc1ccc(CS(=O)(=O)c2c(F)c(F)c(F)c(F)c2F)cc1 [Example 24]    5000
2. COc1ccc(NS(=O)(=O)c2c(F)cc(F)c(F)c2F)cc1 [Example 19]    5000
3. COc1ccc(NS(=O)(=O)c2ccc(F)c([N+](=O)[O-])c2)cc1O [Example 2]    150

[a] COc1ccc(NS(=O)(=O)c2c(F)c(F)c(F)c(F)c2Br)cc1 [Example 4]
[b] COc1ccc(NS(=O)(=O)c2c(F)c(Cl)c(F)c(Cl)c2F)cc1O [Example 9]
-- ask Which value of IC50 is smaller, the one for a or the one for b ? Answer format: the label of the selected item.
-- reply b
(b: 50 nM, a: 150 nM)

* * *

Tested on: HeLa cells
Assay: Inhibition of in vitro growth of HeLa cells (Alamar Blue uptake)
Type: cell-based
Details: Homo sapiens; concentration required to inhibit by 50% the uptake of Alamar Blue by HeLa cell cultures
Reported Endpoint: IC50 (nM)

1. COc1ccc(NS(=O)(=O)c2cc(F)c(F)c(F)c2F)cc1 [Example 20]    500

[A] COc1ccc(NS(=O)(=O)c2cc(F)c(F)c(F)c2Br)cc1 [Example 11]
[B] COc1ccc(NS(=O)(=O)c2c(F)c(F)c(Br)c(F)c2F)cc1 [Example 6]
[C] COc1ccc(NS(=O)(=O)c2cc(F)c(F)c(F)c2F)cc1O [Example 21]
[D] COc1ccc(NS(=O)(=O)c2cc(F)c(F)c(F)c2)cc1O [Example 23]
-- ask Hi! Can you put these in order of IC50, lowest number first? Return the labels ranked in the requested order, please.
-- reply C, A, D, B

[a] COc1ccc(NS(=O)(=O)c2c(F)c(Cl)c(F)c(Cl)c2F)cc1 [Example 8]
[b] COc1ccc(NS(=O)(=O)c2c(F)c(F)c(F)c(F)c2Br)cc1O [Example 3]
-- ask Which one would you say has the larger IC50 value: a , or b ? Pick one; state its label.
-- reply a
(a: 150 nM, b: 50 nM)

[A] COc1ccc(NS(=O)(=O)c2cc(F)c(F)c(F)c2)cc1 [Example 22]
[B] COc1ccc(NS(=O)(=O)c2c(F)c(F)c(F)c(Br)c2F)cc1 [Example 5]
-- ask Of A versus B , which is the one with smaller reported IC50? Answer by quoting the chosen item's label.
-- reply B

[I] COc1ccc(NS(=O)(=O)c2c(F)c(F)c(Cl)c(F)c2F)cc1 [Example 7]
[II] COc1ccc(NS(=O)(=O)c2cc(Br)c(F)c(F)c2F)cc1 [Example 10]
-- ask Smaller IC50 value? Options are I and II API: response body contains the label of the selected item.
-- reply II
